Reported IC50 is given for each of the following compounds.
- target desc: Akt1 (Homo sapiens)
- Construct: unspecified tag, removed (detagged) (cleaved yes); purchased SignalChem and Proteros (Akt1); Merck Millipore (PDK1) 14-452 (PDK1); none given for Akt1
- Sequence (P31749 whole entry): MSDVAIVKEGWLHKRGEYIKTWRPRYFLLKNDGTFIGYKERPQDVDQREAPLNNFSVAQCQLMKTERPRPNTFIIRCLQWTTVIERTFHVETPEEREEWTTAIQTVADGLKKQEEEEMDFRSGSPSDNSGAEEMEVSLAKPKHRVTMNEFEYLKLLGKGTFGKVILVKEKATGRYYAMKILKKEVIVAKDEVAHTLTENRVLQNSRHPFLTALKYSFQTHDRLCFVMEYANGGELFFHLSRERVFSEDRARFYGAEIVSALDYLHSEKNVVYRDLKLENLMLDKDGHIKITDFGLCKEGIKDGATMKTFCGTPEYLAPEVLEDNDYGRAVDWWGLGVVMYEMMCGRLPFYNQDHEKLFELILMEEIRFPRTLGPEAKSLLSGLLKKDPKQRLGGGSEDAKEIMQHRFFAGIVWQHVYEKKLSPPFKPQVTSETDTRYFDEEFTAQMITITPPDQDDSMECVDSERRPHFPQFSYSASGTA
- assay explanation: Akt activation assay (PDK1-mediated activation, LANCE Ultra crosstide TR-FRET), Akt1
- Type: biochemical
- condition details: read-out: Biological Assay 1 IC50 (nM) Akt1
- Experimental: Biological Assay 1: Akt Activation Assay Addition of a Europium-labelled antibody specific to the phosphopeptide allows energy transfer from the Europium donor to the Ultra Ulight™ acceptor if close enough in proximity. […] 5 μL enzyme in 1×AB was incubated with 2.5 μL test compound. […] Plates read with the EnVision® Multilabel Plate Reader, excitation at 320 nm and emission at 665 nm and 615 nm. Compound IC50 was determined using a 4-parameter equation.

# structure string, target desc, IC50
measured = [
    ("COC(=O)N(C)[C@H]1CC[C@H](CC(=O)Nc2cc(-c3ccccn3)c(-c3ccc(C4(N)CC4)cc3)cn2)CC1", "Akt1 (Homo sapiens)", "> 30000 nM"),
    ("Cc1cscc1-c1cc(NC(=O)C[C@H]2CC[C@H](N(C)S(C)(=O)=O)CC2)cnc1-c1ccc(C2(N)CCC2)cc1", "Akt1 (Homo sapiens)", "> 30000 nM"),
    ("COC(=O)N(C)[C@H]1CC[C@H](CC(=O)Nc2cnc(-c3ccc([C@]4(N)C[C@H](F)C4)cc3)c(-c3ccccc3)c2)CC1", "Akt1 (Homo sapiens)", "7900 nM"),
]

Now take the following compound into account.
Field IC50 (entry CC(C)N(C(=O)C1CC1)[C@H]1CC[C@H](CC(=O)Nc2cc(-c3ccccc3)c(-c3ccc([C@]4(N)C[C@](C)(O)C4)cc3)nn2)CC1 ) reads 4600 nM

The origin of these recorded values is patent US10336702B2.
